Below: a set of entries, each annotated with reported half-life.
METHOD_NOTES: Pharmacokinetics in beagle dogs, intravenous
Format: in vivo
TEST_CONDITIONS: dog, plasma; 1.4 mg/kg intravenous slow bolus; mean ± SEM; n = 4 beagle dogs; read-out: T ½ (converted)
# unit: h | format: bare number

COMPOUND	UNIT_ABBREVIATION	half-life
CCCCCOc1ccc(-c2ccc(-c3ccc(C(=O)N[C@H]4C[C@@H](O)C(NCC[N+](C)(C)C)NC(=O)C5[C@@H](O)[C@@H](C)CN5C(=O)C([C@@H](C)O)NC(=O)C([C@H](O)[C@@H](O)c5ccc(O)cc5)NC(=O)C5C[C@@H](O)CC5C(=O)C([C@@H](C)O)NC4=O)cc3)cc2)cc1 (some centres unmarked)	h	27.6

## Task Entry CCCCCOc1ccc(-c2ccc(-c3ccc(C(=O)N[C@H]4C[C@@H](O)C(NCCNCCO)NC(=O)C5[C@@H](O)[C@@H](C)CN5C(=O)C([C@@H](C)O)NC(=O)C([C@H](O)[C@@H](O)c5ccc(O)cc5)NC(=O)C5C[C@@H](O)CC5C(=O)C([C@@H](C)O)NC4=O)cc3)cc2)cc1 (some centres unmarked) has what half-life?
## Result 21

---

System: C. albicans R303
METHOD_NOTES: mouse candidiasis infection model, IP administration, kidney fungal burden
Type: in vivo
TEST_CONDITIONS: Second run; IP 1.5 mg/kg; kidneys 24 h after infection
REPORTED_METRIC: Mean log10 CFU/kidneys (±SEM) (log10 CFU/kidneys)
Kindly answer with a numeric value in log10 CFU/kidneys, unit omitted.

COMPOUND	REPORTED_MEASUREMENT
CCCCCOc1ccc(-c2ccc(-c3ccc(C(=O)N[C@H]4C[C@@H](O)C(OCCN)NC(=O)C5[C@@H](O)[C@@H](C)CN5C(=O)C([C@@H](C)O)NC(=O)C([C@H](O)[C@@H](O)c5ccc(O)cc5)NC(=O)C5C[C@@H](O)CN5C(=O)C([C@@H](C)O)NC4=O)cc3)cc2)cc1 (stereo partly drawn) [compound 4]	0.65
CCCCCOc1ccc(-c2ccc(-c3ccc(C(=O)N[C@H]4C[C@@H](O)C(NCCN)NC(=O)C5[C@@H](O)[C@@H](C)CN5C(=O)C([C@@H](C)O)NC(=O)C([C@H](O)[C@@H](O)c5ccc(O)cc5)NC(=O)C5C[C@@H](O)CC5C(=O)C([C@@H](C)O)NC4=O)cc3)cc2)cc1 (stereo partly drawn) [compound 15]	0.96

Next compound, Mean log10 CFU/kidneys (±SEM) to be filled in.
## Task # query: Mean log10 CFU/kidneys (±SEM) of entry CCCCCOc1ccc(-c2ccc(-c3ccc(C(=O)N[C@H]4C[C@@H](O)C(OCCOCC[N+](C)(C)C)NC(=O)C5[C@@H](O)[C@@H](C)CN5C(=O)C([C@@H](C)O)NC(=O)C([C@H](O)[C@@H](O)c5ccc(O)cc5)NC(=O)C5C[C@@H](O)CN5C(=O)C([C@@H](C)O)NC4=O)cc3)cc2)cc1 (stereo partly drawn) [compound 6]
## Result 1.60

---

Listed here are compounds together with their documented log reduction at 1.5 mg/kg.
Test system: C. albicans R303
METHOD_NOTES: mouse candidiasis infection model, IP administration, kidney fungal burden
Format: in vivo
TEST_CONDITIONS: Candida albicans, R303, ip, 24 h, Fourth run; IP 1.5 mg/kg; read-out: Difference from 24-h control
API doc: respond with a numeric literal and nothing else, no unit.

Use these answered entries as a reference point.
COMPOUND	log reduction at 1.5 mg/kg
CCCCCOc1ccc(-c2ccc(-c3ccc(C(=O)N[C@H]4C[C@@H](O)C(NCCOC)NC(=O)C5[C@@H](O)[C@@H](C)CN5C(=O)C([C@@H](C)O)NC(=O)C([C@H](O)[C@@H](O)c5ccc(O)cc5)NC(=O)C5C[C@@H](O)CN5C(=O)C([C@@H](C)O)NC4=O)cc3)cc2)cc1 (stereo partly drawn) [compound 8]	1.66
CCCCCOc1ccc(-c2ccc(-c3ccc(C(=O)N[C@H]4C[C@@H](O)C(NCCNCCN)NC(=O)C5[C@@H](O)[C@@H](C)CN5C(=O)C([C@@H](C)O)NC(=O)C([C@H](O)[C@@H](O)c5ccc(O)cc5)NC(=O)C5C[C@@H](O)CC5C(=O)C([C@@H](C)O)NC4=O)cc3)cc2)cc1 (stereo partly drawn) [compound 17]	3.91

## Task Hi! What's the reported log reduction at 1.5 mg/kg for CCCCCOc1ccc(-c2ccc(-c3ccc(C(=O)N[C@H]4C[C@@H](O)C(NCCOCCN)NC(=O)C5[C@@H](O)[C@@H](C)CN5C(=O)C([C@@H](C)O)NC(=O)C([C@H](O)[C@@H](O)c5ccc(O)cc5)NC(=O)C5C[C@@H](O)CC5C(=O)C([C@@H](C)O)NC4=O)cc3)cc2)cc1 (stereo partly drawn) [compound 12] on C. albicans R303?
## Result 3.5
